- testTarget: BTK (Homo sapiens, UniProt Q06187)
- Sequence (Q06187 whole entry): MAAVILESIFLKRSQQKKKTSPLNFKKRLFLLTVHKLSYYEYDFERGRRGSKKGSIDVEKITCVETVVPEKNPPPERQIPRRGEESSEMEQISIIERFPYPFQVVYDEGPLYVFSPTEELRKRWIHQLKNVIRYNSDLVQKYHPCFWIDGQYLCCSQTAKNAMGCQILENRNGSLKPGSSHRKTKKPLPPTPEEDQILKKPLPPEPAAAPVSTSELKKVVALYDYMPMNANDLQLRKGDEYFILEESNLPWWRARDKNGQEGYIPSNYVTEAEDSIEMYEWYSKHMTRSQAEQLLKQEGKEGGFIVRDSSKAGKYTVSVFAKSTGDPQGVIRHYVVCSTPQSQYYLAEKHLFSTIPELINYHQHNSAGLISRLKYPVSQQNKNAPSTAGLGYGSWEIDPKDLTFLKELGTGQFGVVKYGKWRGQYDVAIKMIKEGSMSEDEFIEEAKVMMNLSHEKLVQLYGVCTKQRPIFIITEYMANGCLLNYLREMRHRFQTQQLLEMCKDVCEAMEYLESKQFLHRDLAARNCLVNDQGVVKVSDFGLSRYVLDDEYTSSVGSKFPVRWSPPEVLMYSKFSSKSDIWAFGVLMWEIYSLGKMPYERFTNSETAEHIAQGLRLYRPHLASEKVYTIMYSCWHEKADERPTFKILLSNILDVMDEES
- experiment: Degradation of BTK protein in Namalwa cells (Western blot; DC50, Dmax)
- conditionContext: read-out: Dmax (BTK degradation)
Parameter: Dmax. Scope: all listed entries.

Please review the following examples before continuing.
compound	Dmax
Nc1ncnc2c1c(-c1ccc(Oc3ccccc3)cc1)nn2C1CCN(CC2CCN(CC3CN(c4ccc5c(c4)C(=O)N(C4CCC(=O)NC4=O)C5=O)C3)C2)CC1 (centres unmarked)	> 90%
Nc1ncnc2c1c(-c1ccc(Oc3ccccc3)cc1)nn2C1CCN(CC2CCN(CC3CCN(c4ccc5c(c4)oc(=O)n5C4CCC(=O)NC4=O)CC3)C2)CC1 (centres unmarked)	> 75%
Nc1ncnc2c1c(-c1ccc(Oc3ccccc3)cc1)nn2[C@@H]1CCCN(C2CCN(C(=O)N3CC(N4CCN(c5ccc6c(c5)C(=O)N(C5CCC(=O)NC5=O)C6=O)CC4)C3)CC2)C1 (some centres unmarked)	> 90%
NC1=NC=NC2C1C(c1ccc(Oc3ccccc3)cc1)=NN2C1CCN(C(=O)N2CCN(C3CN(c4ccc5c(c4)C(=O)N(C4CCC(=O)NC4=O)C5=O)C3)CC2)CC1 (centres unmarked)	> 75%
NC1=NC=NC2C1C(c1ccc(Oc3ccccc3)cc1)=NN2[C@@H]1CCCN(C(=O)N2CC(C3CN(c4ccc5c(c4)C(=O)N(C4CCC(=O)NC4=O)C5=O)C3)C2)C1 (some centres unmarked)	> 90%

For the next question, use this compound.
*Q* Item Nc1ncnc2c1c(-c1ccc(Oc3ccccc3)cc1)nn2C1CCN(CC2CCN(CC3CCN(c4ccc5c(c4)C(=O)N(C4CCC(=O)NC4=O)C5=O)C3)C2)CC1 (centres unmarked) has what recorded Dmax?
*A* > 90%

====

- testTarget: BTK (Homo sapiens)
- experiment: Degradation of BTK protein in Namalwa cells (Western blot; DC50, Dmax)
- conditionContext: BTK degradation; cell line not given
# maps each entry to its DC50

compound	propertyName	experimentalResult
NC(=O)c1c(-c2ccc(Oc3ccccc3)cc2)nn2c1NCC[C@H]2C1CCN(C2CCN(C(=O)N3CCC(N4CCN(c5ccc6c(c5)CN(C5CCC(=O)NC5=O)C6=O)CC4)CC3)CC2)CC1 (stereo partly drawn) [Compound 382]	DC50	< 10 nM
Nc1ncnc2c1c(-c1ccc(Oc3ccccc3)cc1)nn2C1CCN(C2CCN(C(=O)N3CCC(CN4CCC(c5ccc6c(c5)C(=O)N(C5CCC(=O)NC5=O)C6=O)CC4)CC3)CC2)CC1 (stereo not drawn) [Compound 243]	DC50	< 10 nM

Please examine the following record next.
*Q* Data request, read-out DC50, for Nc1ncnc2c1c(-c1ccc(Oc3ccccc3)cc1)nn2C1CCN(C2CCN(C(=O)N3CCC(CCN4CCC(c5ccc6c(c5)C(=O)N(C5CCC(=O)NC5=O)C6=O)CC4)CC3)CC2)CC1 (stereo not drawn) [Compound 253]
*A* 10 to 50 nM

====

- testTarget: BTK (Homo sapiens, UniProt Q06187)
- experiment: Degradation of BTK protein in Namalwa cells (Western blot; DC50, Dmax)
- conditionContext: BTK degradation; cell line not given
Attribute: DC50

molecule	experimentalResult
NC(=O)c1c(-c2ccc(Oc3ccccc3)cc2)nn2c1NCCC2C1CCN(CC2CCN(C(=O)N3CCN(Cc4ccc5c(c4)CN(C4CCC(=O)NC4=O)C5=O)CC3)CC2)CC1 (stereo not shown)	> 50 nM

Now take the following molecule into account.
*Q* I have this molecule here, Nc1ncnc2c1c(-c1ccc(Oc3ccccc3)cc1)nn2C1CCN(C2CCN(C(=O)N3CCC(N4CCC(c5ccc6c(c5)CN(C5CCC(=O)NC5=O)C6=O)CC4)CC3)CC2)CC1 (stereo not shown) , and I need its recorded DC50.
*A* 10 to 50 nM
